# tested_target: Jak2 (a.a. 828-1132) (Homo sapiens, UniProt O60674)
# Construct: Jak2 (a.a. 828-1132); His tag (N); made in house; host or cells: insect cells (baculovirus)
# Sequence (O60674 828-1132): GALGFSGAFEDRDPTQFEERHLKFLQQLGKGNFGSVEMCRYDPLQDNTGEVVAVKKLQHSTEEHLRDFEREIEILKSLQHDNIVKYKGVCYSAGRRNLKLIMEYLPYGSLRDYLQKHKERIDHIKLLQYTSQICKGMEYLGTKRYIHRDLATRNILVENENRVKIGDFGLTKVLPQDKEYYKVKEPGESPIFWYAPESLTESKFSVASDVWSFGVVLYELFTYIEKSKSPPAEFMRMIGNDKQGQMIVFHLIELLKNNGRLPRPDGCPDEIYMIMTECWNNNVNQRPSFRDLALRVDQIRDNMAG
# assay_notes: In vitro JAK kinase assay (HTRF, phosphorylation of a biotinylated peptide), JAK2, reported as JAK2/JAK1 ratio
# Assay type: biochemical
# conditions_used: Assay Conditions 1 mM ATP
Counter-ions that a name gives are not always drawn.
value_kind: JAK2/JAK1 IC50 ratio

Please review the following examples before continuing.
[Q] Fill: JAK2/JAK1 IC50 ratio (Jak2 (a.a. 828-1132) (Homo sapiens, UniProt O60674)) for this compound N#CC[C@@H]([C@H]1CCN(c2cccc(C(F)(F)F)c2C#N)C1)n1cc(-c2ncnc3[nH]ccc23)cn1 [Example 56, trifluoroacetate salt]
[A] >10

[Q] Fill: JAK2/JAK1 IC50 ratio (Jak2 (a.a. 828-1132) (Homo sapiens, UniProt O60674)) for this compound N#CCC(C1CCN(c2ncc3c(c2C#N)SCC3)C1)n1cc(-c2ncnc3[nH]ccc23)cn1 (single isomer, unassigned)
[A] >27.3

[Q] Fill: JAK2/JAK1 IC50 ratio (Jak2 (a.a. 828-1132) (Homo sapiens, UniProt O60674)) for this compound N#CCC(C1CCN(c2nc3cc(F)cc(F)c3o2)C1)n1cc(-c2ncnc3[nH]ccc23)cn1 (single isomer, unassigned)
[A] >7

[Q] Fill: JAK2/JAK1 IC50 ratio (Jak2 (a.a. 828-1132) (Homo sapiens, UniProt O60674)) for this compound N#CCC(n1cc(-c2ncnc3[nH]ccc23)cn1)C1(F)CCN(c2nc3cccnc3o2)C1 (single isomer, unassigned) [31, Step 4b, enantiomer 1]
[A] >2.5

***
[Q] Fill: JAK2/JAK1 IC50 ratio (Jak2 (a.a. 828-1132) (Homo sapiens, UniProt O60674)) for this compound N#CCC(C1CCN(c2ncc3ccoc3c2C#N)C1)n1cc(-c2ncnc3[nH]ccc23)cn1 (single isomer, unassigned)
[A] >13.3

[Q] Fill: JAK2/JAK1 IC50 ratio (Jak2 (a.a. 828-1132) (Homo sapiens, UniProt O60674)) for this compound CCc1cnc(N2CC[C@H]([C@H](CC#N)n3cc(-c4ncnc5[nH]ccc45)cn3)C2)c(C#N)n1 [Example 144, trifluoroacetate]
[A] >6.9

[Q] Fill: JAK2/JAK1 IC50 ratio (Jak2 (a.a. 828-1132) (Homo sapiens, UniProt O60674)) for this compound N#CCC(C1CCN(c2nc3cccc(CO)c3o2)C1)n1cc(-c2ncnc3[nH]ccc23)cn1 (single isomer, unassigned)
[A] >8.7

[Q] Fill: JAK2/JAK1 IC50 ratio (Jak2 (a.a. 828-1132) (Homo sapiens, UniProt O60674)) for this compound N#CC[C@@H]([C@H]1CCN(c2nccc(C(F)(F)F)c2F)C1)n1cc(-c2ncnc3[nH]ccc23)cn1 [Example 66, trifluoroacetate salt]
[A] >20
